Biological target: h-GABA-A α5β3γ2 (Homo sapiens, UniProt P18507+P31644)
Assay: Two-electrode voltage clamp electrophysiology in Xenopus laevis oocytes expressing GABAA receptors, modulation of GABA EC20 current
Type: cell-based
Set-up: host or cells: Xenopus laevis oocytes micro-injected with RNA transcripts of the subunits
Conditions: test compound at approx. 30 fold its Ki, GABA at EC20; Table 1
result_type: Fold increase h-GABA-A α5β3γ2 oocyte
Give bare numbers.

Cc1ccc(-c2noc(C)c2Cn2ncc(N3CC4CC(C3)O4)cc2=O)cn1 | 2.05
Cc1ccc(-c2noc(C)c2Cn2ncc(N3CCC4(CCOCC4)CC3)cc2=O)cn1 | 1.95
Cc1ccc(-c2noc(C)c2Cn2ncc(N3CC(Oc4ccnc(Cl)c4)C3)cc2=O)cn1 | 2.7
Cc1ccc(-c2noc(C)c2Cn2ncc(-c3cncc(Cl)c3)cc2=O)cn1 | 3.48
Cc1ccc(-c2noc(C)c2Cn2ncc(N3CCNCC3)cc2=O)cn1 | 2.04

// for each molecule in input: emit Fold increase h-GABA-A α5β3γ2 oocyte
1. Cc1onc(-c2ccc(Cl)nc2)c1Cn1ncc(N2C[C@@H](C)O[C@@H](C)C2)cc1=O
2. Cc1ccc(-c2noc(C)c2Cn2ncc(N3CC[C@@H](OC(C)(C)C)C3)cc2=O)cn1

1: 3.47; 2: 2.09

With h-GABA-A α5β3γ2 (Homo sapiens, UniProt P18507+P31644) as the test system, provide measured Fold increase h-GABA-A α5β3γ2 oocyte for this molecule: Cc1ccc(-c2noc(C)c2Cn2ncc(N3CC(Oc4ccccc4F)C3)cc2=O)cn1 2.2

---

Molecular target: h-GABA-A α5β3γ2 (Homo sapiens, UniProt P18507+P31644)
Experiment: Two-electrode voltage clamp electrophysiology in Xenopus laevis oocytes expressing GABAA receptors, modulation of GABA EC20 current
Assay type: cell-based
Design: host or cells: Xenopus laevis oocytes micro-injected with RNA transcripts of the subunits
Details: % modulation of GABA EC20 = 100*(Fold increase-1); Table 1
What Efficacy (GABA) % was measured for each of the following?
One number for each entry, in %.

Cc1onc(-c2ccc(Cl)nc2)c1Cn1ncc(N2CCO[C@@H](C)C2)cc1=O | 149
Cc1ccc(-c2noc(C)c2Cn2ncc(N3CCC3)cc2=O)cn1 | 106
Cc1ccc(-c2noc(C)c2Cn2ncc(N3CCC4(CC3)CC(F)CCO4)cc2=O)nn1 (single isomer, unassigned) [Example 326] | 164
Cc1onc(-c2ccc(Cl)nc2)c1Cn1ncc(N2CCC3(CCCO3)CC2)cc1=O | 126
Cc1ccc(-c2noc(C)c2Cn2ncc(N3CCN(C4CC4)[C@@H](C)C3)cc2=O)cn1 | 97
Cc1ccc(-c2noc(C)c2Cn2ncc(N3CC4(CC(OC(F)F)C4)C3)cc2=O)nn1 | 140

Return reported Efficacy (GABA) % values for all items listed beneath this line.
1. Cc1onc(-c2ccc(Cl)nc2)c1Cn1ncc(N2CC3(C[C@H](C)CCO3)C2)cc1=O
2. Cc1ncccc1N1CCN(c2cnn(Cc3c(-c4ccc(Cl)nc4)noc3C)c(=O)c2)CC1
3. CO[C@H]1COC2(C1)CN(c1cnn(Cc3c(-c4ccc(C(F)(F)F)nc4)noc3C)c(=O)c1)C2
4. Cc1ccc(-c2nocc2Cn2ncc(N3C[C@@H](C)O[C@@H](C)C3)cc2=O)cn1
5. Cc1onc(-c2ccc(C(F)(F)F)nc2)c1Cn1ncc(N2C[C@@H](C)O[C@@H](C)C2)cc1=O
6. CC1(C(=O)N2CCN(c3cnn(Cc4c(-c5ccc(Cl)cn5)noc4C4CC4)c(=O)c3)CC2)CC1
7. CCO[C@H]1COC2(C1)CN(c1cnn(Cc3c(-c4ccc(C)nc4)noc3C)c(=O)c1)C2
8. Cc1ccc(-c2noc(C)c2Cn2ncc(N3C4COCC3C4)cc2=O)cn1

1. 73
2. 84
3. 147
4. 288
5. 198
6. 247
7. 119
8. 150

---

Molecular target: h-GABA-A α5β3γ2 (Homo sapiens, UniProt P18507+P31644)
Assay: Two-electrode voltage clamp electrophysiology in Xenopus laevis oocytes expressing GABAA receptors, modulation of GABA EC20 current
Type: cell-based
Set-up: host or cells: Xenopus laevis oocytes micro-injected with RNA transcripts of the subunits
Conditions: % modulation of GABA EC20 = 100*(Fold increase-1); Table 1
Can you tell me Efficacy (GABA) % for the items I'm about to list?
Numbers only, in %.

CCn1cc(-c2cnn(Cc3c(-c4ccc(Cl)nc4)noc3C)c(=O)c2)cn1 | 99
Cc1ccc(-c2noc(C)c2Cn2ncc(N3CC4(C[C@H](F)CO4)C3)cc2=O)cn1 | 93

Next item in the queue.
Please list Efficacy (GABA) % recorded for the molecule Cc1ccc(-c2noc(C)c2Cn2ncc(N3CC(OC(C)(C)C)C3)cc2=O)cn1 85

---

Biological target: h-GABA-A α5β3γ2 (Homo sapiens, UniProt P18507+P31644)
Test: [3H]flumazenil competition binding assay, membranes of HEK293 cells expressing GABAA receptors
Conditions: displacement of [3H]-Flumazenil 0.5 nM, HEK293 cells expressing human receptors, mean of two determinations; Table 1
Would you kindly list Ki for each of these compounds?
The reply must contain the numeric value and, after it, the unit.

Field: example entries. Status: answers known.
Cc1ccc(-c2noc(CF)c2Cn2ncc(N3C[C@@H](C)O[C@@H](C)C3)cc2=O)cn1 | 4.6 nM
Cc1onc(-c2ccc(Cl)nc2)c1Cn1ncc(N2CCC3(CC2)CC(F)CCO3)cc1=O (single isomer, unassigned) [Example 330] | 48.8 nM
Cc1ccc(-c2noc(C)c2Cn2ncc(N3CC4(C3)CN(C3CC3)C4)cc2=O)cn1 | 70.4 nM

Turning to the following compound.
Note down Ki recorded for COc1ccc(-c2cnn(Cc3c(-c4ccc(C)nc4)noc3C)c(=O)c2)cc1OC 7.8 nM

---

Would you mind telling me the reported log10 of Ki of each entry?
Biological target: h-GABA-A α5β3γ2 (Homo sapiens, UniProt P18507+P31644)
Assay: [3H]flumazenil competition binding assay, membranes of HEK293 cells expressing GABAA receptors
Details: displacement of [3H]-Flumazenil 0.5 nM, HEK293 cells expressing human receptors, mean of two determinations; Table 1
Base-10 log of Ki, unit nM.

Reference set (10 entries):
Cc1onc(-c2ccc(Cl)nc2)c1Cn1ncc(N2CC(OCC(F)F)C2)cc1=O | 1.27
Cc1ccc(-c2noc(C)c2Cn2ncc(N3CC(O)(C(F)(F)F)C3)cc2=O)cn1 | 0.61
CCOC1CN(c2cnn(Cc3c(-c4ccc(C)nc4)noc3C)c(=O)c2)C1 | 1.16
CCO[C@H]1CN(c2cnn(Cc3c(-c4ccc(C)nc4)noc3C)c(=O)c2)[C@H]1C | 0.26
Cc1onc(-c2ccc(Cl)nc2)c1Cn1ncc(N2CCN(c3cncnc3)CC2)cc1=O | 0.53
Cc1onc(-c2ccc(Cl)nn2)c1Cn1ncc(N2CC(OC(C)(C)C)C2)cc1=O | 0.86
Cc1ccc(-c2noc(C)c2Cn2ncc(N3CCC(C(F)(F)F)CC3)cc2=O)cn1 | 1.16
Cc1ccc(-c2noc(C)c2Cn2ncc(N3CCN4C(=O)OCC4C3)cc2=O)cn1 (centres unmarked) | 0.98
Cc1ccc(-c2noc(C)c2Cn2ncc(N3CCN[C@@H](C)C3)cc2=O)cn1 | 0.52
Cc1onc(-c2ccc(Cl)nc2)c1Cn1ncc(N2CC(OC3CC3)C2)cc1=O | 1.11

For each listed entry, give its log10 of Ki.
1. COC1CN(c2cnn(Cc3c(-c4ccc(Cl)nc4)noc3C)c(=O)c2)C1
2. Cc1ccc(-c2noc(C)c2Cn2ncc(N(C)C3COC3)cc2=O)cn1
3. Cc1ccc(-c2noc(C)c2Cn2ncc(N3CC(Oc4ccncc4)C3)cc2=O)cn1
4. Cc1onc(-c2ccc(Cl)nc2)c1Cn1ncc(N2CC(OC(F)F)C2)cc1=O

1. 1.62
2. 0.67
3. 0.65
4. 1.16

---

Could you please report measured pKi for the items listed next?
Target: h-GABA-A α5β3γ2 (Homo sapiens, UniProt P18507+P31644)
Experiment: [3H]flumazenil competition binding assay, membranes of HEK293 cells expressing GABAA receptors
Conditions: displacement of [3H]-Flumazenil 0.5 nM, HEK293 cells expressing human receptors, mean of two determinations; Table 1
Give bare numbers, as −log10 of the molar value.

Sample records with pKi:
Cc1ccc(-c2noc(C)c2Cn2ncc(N3CC(OC4CCC4)C3)cc2=O)nn1 | 8.17
Cc1ccc(-c2noc(C)c2Cn2ncc(N3CC(Oc4cccc(F)c4)C3)cc2=O)cn1 | 8.14

With those in mind, consider the next compound.
Assign pKi to the following record: Cc1ccc(-c2noc(C)c2Cn2ncc(N3CC(OCC(F)F)C3)cc2=O)cn1 7.86

---

Biological target: h-GABA-A α5β3γ2 (Homo sapiens, UniProt P18507+P31644)
Experiment: Two-electrode voltage clamp electrophysiology in Xenopus laevis oocytes expressing GABAA receptors, modulation of GABA EC20 current
Type: cell-based
Set-up: host or cells: Xenopus laevis oocytes micro-injected with RNA transcripts of the subunits
Details: % modulation of GABA EC20 = 100*(Fold increase-1); Table 1
result_type: Efficacy (GABA) % (%)
Give bare numbers, in %.

// below: answered compounds
Cc1ccc(-c2noc(C)c2Cn2ncc(N3CC[C@@H](C)C3)cc2=O)cn1 | 158
Cc1onc(-c2ccc(C(F)(F)F)nn2)c1Cn1ncc(N2CC3(CCCCO3)C2)cc1=O | 90

Let us move to another entry and its Efficacy (GABA) %.
Let me know recorded Efficacy (GABA) % for Cc1ccc(-c2noc(CF)c2Cn2ncc(N3CC4(CCCO4)C3)cc2=O)nn1 , thanks. 74
